// Tubulin beta-1 chain (Homo sapiens) pIC50 records
The meaning of pIC50 here: minus log10 of the concentration in molar units.

Here's what some known entries look like.
>  <structure-string>
COc1ccc(/C=C/c2cc(OC)c(O)c(OC)c2)cc1O

>  <pIC50>
4.85

$$$$
>  <structure-string>
COc1ccc(/C=C\c2cc(OC)c(OC)c(OC)c2)cc1[N+](=O)[O-]

>  <pIC50>
5.59

$$$$
>  <structure-string>
COc1ccc(/C=C\c2cc(OC)c(OC)c(OC)c2)cc1OCCn1ccnc1.Cl

>  <pIC50>
5.12

$$$$
>  <structure-string>
COc1ccc(/C=C\c2cc(OC)c(OC)c(OC)c2)cc1Br

>  <pIC50>
5.96

$$$$

Kindly consider the entry below.
Reported pIC50 for "COc1ccc(/C=C/c2cc(OC)c(OC)c(OC)c2)cc1Br" : what is it?
4.51

---

System: FaDu
test-protocol: Growth inhibition against human pharynx FADU cell line
Type: functional
measured-metric: GI50 (µg/mL)
Number only, in µg/mL; omit the unit.

Here's what some known entries look like.
>  <structure-string>
COc1ccc(/C=C\c2cc(OC)c(OC)c(OC)c2)cc1OCCn1cccc1.Cl

>  <target-under-test>
FaDu

>  <GI50 (µg/mL)>
0.003

$$$$
>  <structure-string>
COc1ccc(/C=C\c2cc(OC)c(OC)c(OC)c2)cc1OCCCl

>  <target-under-test>
FaDu

>  <GI50 (µg/mL)>
4.6

$$$$
>  <structure-string>
COc1ccc(/C=C\c2cc(OC)c(OC)c(OC)c2)cc1OCC[N+](C)(C)C.[I-]

>  <target-under-test>
FaDu

>  <GI50 (µg/mL)>
0.24

$$$$
>  <structure-string>
COc1ccc(/C=C/c2cc(OC)c(OC)c(OC)c2)cc1OCCCO

>  <target-under-test>
FaDu

>  <GI50 (µg/mL)>
2.3

$$$$
>  <structure-string>
COc1ccc(/C=C\c2cc(OC)c(OC)c(OC)c2)cc1OCCN1CCCC1.Cl

>  <target-under-test>
FaDu

>  <GI50 (µg/mL)>
0.49

$$$$

Reported GI50 for "COc1ccc(/C=C\c2cc(OC)c(OC)c(OC)c2)cc1OCCOS(C)(=O)=O" : what is it?
0.41

Reported GI50 for "CCN(CC)CCOc1cc(/C=C\c2cc(OC)c(OC)c(OC)c2)ccc1OC.Cl" : what is it?
1.1

Reported GI50 for "COc1ccc(/C=C\c2cc(OC)c(OC)c(OC)c2)cc1O" : what is it?
0.00065

Reported GI50 for "COc1ccc(/C=C\c2cc(OC)c(OC)c(OC)c2)cc1[N+](=O)[O-]" : what is it?
0.047

Reported GI50 for "COc1ccc(/C=C\c2cc(OC)c(OC)c(OC)c2)cc1OCCn1ccnc1.Cl" : what is it?
0.67

---

Test system: SK-N-SH
test-protocol: Growth inhibition against human neuroblastoma cell line (SK-N-SH)
Format: functional
measured-metric: log10 GI50 (log10 of the value in µg/mL)
Give log10 of GI50, with GI50 taken in µg/mL.

Here's what some known entries look like.
>  <structure-string>
COc1ccc(/C=C\c2cc(OC)c(OC)c(OC)c2)cc1OCCN1CCOCC1.Cl

>  <target-under-test>
SK-N-SH

>  <measured-metric>
log10 GI50

>  <observed-result>
-0.66

$$$$
>  <structure-string>
COc1ccc(/C=C\c2cc(OC)c(OC)c(OC)c2)cc1OCCN1CCCCC1.Cl

>  <target-under-test>
SK-N-SH

>  <measured-metric>
log10 GI50

>  <observed-result>
0.20

$$$$
>  <structure-string>
COc1ccc(/C=C\c2cc(OC)c(OC)c(OC)c2)cc1OCCCl

>  <target-under-test>
SK-N-SH

>  <measured-metric>
log10 GI50

>  <observed-result>
0.30

$$$$
>  <structure-string>
COc1ccc(/C=C/c2cc(OC)c(OC)c(OC)c2)cc1OCCCO

>  <target-under-test>
SK-N-SH

>  <measured-metric>
log10 GI50

>  <observed-result>
0.91

$$$$
>  <structure-string>
COc1ccc(/C=C\c2cc(OC)c(OC)c(OC)c2)cc1N(C)C

>  <target-under-test>
SK-N-SH

>  <measured-metric>
log10 GI50

>  <observed-result>
-2.00

$$$$
>  <structure-string>
COc1ccc(/C=C/c2cc(OC)c(OC)c(OC)c2)cc1[N+](=O)[O-]

>  <target-under-test>
SK-N-SH

>  <measured-metric>
log10 GI50

>  <observed-result>
0.86

$$$$
>  <structure-string>
COc1ccc(/C=C\c2cc(OC)c(OC)c(OC)c2)cc1Br

>  <target-under-test>
SK-N-SH

>  <measured-metric>
log10 GI50

>  <observed-result>
-2.70

$$$$
>  <structure-string>
COc1ccc(/C=C\c2cc(OC)c(OC)c(OC)c2)cc1O

>  <target-under-test>
SK-N-SH

>  <measured-metric>
log10 GI50

>  <observed-result>
-3.59

$$$$

Notebook entry, SK-N-SH assay: log10 GI50 of "COc1ccc(/C=C\c2cc(OC)c(OC)c(OC)c2)cc1OCCO" = ?
-1.55

Notebook entry, SK-N-SH assay: log10 GI50 of "COc1ccc(/C=C\c2cc(OC)c(O)c(OC)c2)cc1O" = ?
-0.72

---

Test system: SK-N-SH
test-protocol: Growth inhibition against human neuroblastoma cell line (SK-N-SH)
Assay type: functional
measured-metric: log10(GI50) (log10 of the value in µg/mL)
Give log10 of GI50, with GI50 taken in µg/mL.

>  <molecule>
COc1ccc(/C=C/c2cc(OC)c(O)c(OC)c2)cc1O

>  <log10(GI50)>
0.74

$$$$
>  <molecule>
COc1ccc(/C=C\c2cc(OC)c(OC)c(OC)c2)cc1OCCOS(C)(=O)=O

>  <log10(GI50)>
0.48

$$$$

Notebook entry, SK-N-SH assay: log10(GI50) of "COc1ccc(/C=C\c2cc(OC)c(OC)c(OC)c2)cc1N" = ?
-3.64

Notebook entry, SK-N-SH assay: log10(GI50) of "COc1ccc(/C=C\c2cc(OC)c(OC)c(OC)c2)cc1OCCCO" = ?
-0.74

Notebook entry, SK-N-SH assay: log10(GI50) of "COc1ccc(/C=C/c2cc(OC)c(OC)c(OC)c2)cc1Br" = ?
-0.40

Notebook entry, SK-N-SH assay: log10(GI50) of "COc1ccc(/C=C\c2cc(OC)c(OC)c(OC)c2)cc1OCCn1cccc1.Cl" = ?
-2.19

Notebook entry, SK-N-SH assay: log10(GI50) of "COc1ccc(/C=C\c2cc(OC)c(OC)c(OC)c2)cc1OCCN1CCCC1.Cl" = ?
-0.66

---

System: FaDu
test-protocol: Growth inhibition against human pharynx FADU cell line
Type: functional
The molecules listed here are annotated with their log10(GI50).
Give log10 of GI50, with GI50 taken in mg/L.

Here's what some known entries look like.
>  <molecule>
COc1ccc(/C=C\c2cc(OC)c(OC)c(OC)c2)cc1N(C)C

>  <target-under-test>
FaDu

>  <measured-metric>
log10(GI50)

>  <observed-result>
-1.05

$$$$
>  <molecule>
COc1ccc(/C=C\c2cc(OC)c(OC)c(OC)c2)cc1OP(=O)([O-])[O-].[Na+].[Na+] [FOSBRETABULIN DISODIUM]

>  <target-under-test>
FaDu

>  <measured-metric>
log10(GI50)

>  <observed-result>
-3.35

$$$$
>  <molecule>
COc1ccc(/C=C\c2cc(OC)c(OC)c(OC)c2)cc1OC(=O)N(CCCl)CCCl

>  <target-under-test>
FaDu

>  <measured-metric>
log10(GI50)

>  <observed-result>
-0.82

$$$$

Reported log10(GI50) for "COc1ccc(/C=C\c2cc(OC)c(OC)c(OC)c2)cc1OCCN1CCOCC1.Cl" : what is it?
-0.28

Reported log10(GI50) for "COc1ccc(/C=C\c2cc(OC)c(OC)c(OC)c2)cc1OCCO" : what is it?
-1.16

Reported log10(GI50) for "COc1ccc(/C=C/c2cc(OC)c(OC)c(OC)c2)cc1Br" : what is it?
1.06

---

The compounds listed here are annotated with their GI50.
System: SK-N-SH
test-protocol: Growth inhibition against human neuroblastoma cell line (SK-N-SH)
Format: functional
Number only, in µg/mL; omit the unit.

Reported GI50 for COc1ccc(/C=C\c2cc(OC)c(OC)c(OC)c2)cc1OP(=O)([O-])[O-].[Na+].[Na+] [FOSBRETABULIN DISODIUM] : what is it?
0.00025

Reported GI50 for "CCN(CC)CCOc1cc(/C=C\c2cc(OC)c(OC)c(OC)c2)ccc1OC.Cl" : what is it?
1.5

Reported GI50 for "COc1ccc(/C=C\c2cc(OC)c(OC)c(OC)c2)cc1OCCN(C)C.Cl" : what is it?
0.21

Reported GI50 for "COc1ccc(/C=C\c2cc(OC)c(OC)c(OC)c2)cc1OCC[N+](C)(C)C.[I-]" : what is it?
0.28

Reported GI50 for "COc1ccc(/C=C\c2cc(OC)c(OC)c(OC)c2)cc1OCCN1CCN(C)CC1.Cl.Cl" : what is it?
2.8

Reported GI50 for "COc1ccc(/C=C\c2cc(OC)c(OC)c(OC)c2)cc1[N+](=O)[O-]" : what is it?
0.014

Reported GI50 for "COc1ccc(/C=C\c2cc(OC)c(OC)c(OC)c2)cc1OC(=O)N(CCCl)CCCl" : what is it?
0.14

Reported GI50 for "COc1ccc(/C=C\c2cc(OC)c(OC)c(OC)c2)cc1OCCn1ccnc1.Cl" : what is it?
0.31

Data provenance: ChEMBL document CHEMBL1139543
